The origin of these recorded values is patent US9840513B2.

Molecular target: F508delCFTR in primary hBE cells with F508del/F508del CFTR mutation (Homo sapiens, UniProt P13569, DEL508-508)
Construct: cells isolated from CF patients with the homozygous mutation; endogenous in cells; host or cells: primary human bronchial epithelial (hBE) cells from F508del/F508del CF patients
Sequence (P13569 with tags, fused parts or gaps DEL508-508): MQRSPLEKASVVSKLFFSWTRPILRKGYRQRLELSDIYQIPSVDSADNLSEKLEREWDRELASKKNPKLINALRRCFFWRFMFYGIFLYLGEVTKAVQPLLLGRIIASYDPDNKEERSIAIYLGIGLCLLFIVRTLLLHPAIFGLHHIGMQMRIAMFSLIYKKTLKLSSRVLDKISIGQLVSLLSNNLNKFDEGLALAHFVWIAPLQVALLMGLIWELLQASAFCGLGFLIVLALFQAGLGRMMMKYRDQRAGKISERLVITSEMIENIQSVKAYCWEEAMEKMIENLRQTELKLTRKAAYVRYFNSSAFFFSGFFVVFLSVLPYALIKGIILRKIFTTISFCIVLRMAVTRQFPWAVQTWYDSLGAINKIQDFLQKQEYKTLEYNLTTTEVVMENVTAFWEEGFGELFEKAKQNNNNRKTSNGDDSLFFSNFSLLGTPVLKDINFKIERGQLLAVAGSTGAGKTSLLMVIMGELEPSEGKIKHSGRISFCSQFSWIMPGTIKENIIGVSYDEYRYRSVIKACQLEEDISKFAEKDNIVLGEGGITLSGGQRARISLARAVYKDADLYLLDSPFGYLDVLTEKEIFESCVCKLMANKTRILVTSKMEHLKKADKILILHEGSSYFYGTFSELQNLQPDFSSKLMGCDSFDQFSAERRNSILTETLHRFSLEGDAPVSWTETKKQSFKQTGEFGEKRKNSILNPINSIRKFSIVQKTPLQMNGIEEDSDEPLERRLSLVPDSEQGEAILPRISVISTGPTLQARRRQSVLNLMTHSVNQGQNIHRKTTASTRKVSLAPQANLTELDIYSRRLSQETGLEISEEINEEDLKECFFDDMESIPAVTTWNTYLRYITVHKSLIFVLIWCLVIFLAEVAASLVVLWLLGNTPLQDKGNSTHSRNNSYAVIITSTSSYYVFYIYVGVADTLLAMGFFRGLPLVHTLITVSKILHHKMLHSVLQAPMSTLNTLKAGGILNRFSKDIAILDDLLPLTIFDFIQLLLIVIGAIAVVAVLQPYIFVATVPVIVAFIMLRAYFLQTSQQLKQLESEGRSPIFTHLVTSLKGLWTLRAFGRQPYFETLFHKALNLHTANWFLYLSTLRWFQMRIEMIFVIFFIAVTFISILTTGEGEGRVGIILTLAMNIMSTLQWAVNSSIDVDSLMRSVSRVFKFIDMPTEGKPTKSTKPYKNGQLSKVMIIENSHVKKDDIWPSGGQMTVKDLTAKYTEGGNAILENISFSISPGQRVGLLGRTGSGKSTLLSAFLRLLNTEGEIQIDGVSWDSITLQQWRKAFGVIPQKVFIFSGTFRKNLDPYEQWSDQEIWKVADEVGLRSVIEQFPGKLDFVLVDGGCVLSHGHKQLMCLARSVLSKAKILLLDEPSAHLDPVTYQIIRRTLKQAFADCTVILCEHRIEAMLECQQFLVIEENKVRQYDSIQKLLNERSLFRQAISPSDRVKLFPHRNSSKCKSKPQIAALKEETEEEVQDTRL
Assay: Transepithelial Clamp Circuit on Human Bronchial Epithelial Cells Conductance Assay (hBE-TECC)
Type: cell-based
Conditions: relative to positive control (3 μM) coupled with control potentiator
MEASURED ENDPOINT: Maximum % activity (%)

{"COMPOUND": "COc1ccc2c(c1)O[C@@H](c1ccc(CO)nc1)C[C@H]2NC(=O)[C@@]1(C)COc2cc3c(cc21)OC(F)(F)O3", "Maximum % activity (%)": 108}

[P] COc1ccc2c(c1)OC(c1ccc(OC[C@@H](O)CO)nn1)C[C@H]2NC(=O)[C@@]1(C)COc2cc3c(cc21)OC(F)(F)O3 (stereo partly drawn)
[Q] C[C@]1(C(=O)Nc2cc3cc(C4(CO)CC4)n(C[C@@H](O)CO)c3cc2F)COc2cc3c(cc21)OC(F)(F)O3
[R] CC(C)(CO)c1cc2cc(NC(=O)[C@@]3(C)COc4cc5c(cc43)OC(F)(F)O5)c(F)cc2n1C[C@@H](O)CO
Output the entries ranked by Maximum % activity (%) from maximum down to minimum. Form field (ranking): labels in requested order.
P, R, Q

[a] COc1ccc2c(c1)O[C@@H](c1ccc(C(=O)NCC(C)(C)O)cn1)C[C@H]2NC(=O)[C@@]1(C)COc2cc3c(cc21)OC(F)(F)O3
[b] C[C@]1(C(=O)Nc2cc3cc(C4(CO)CCC4)[nH]c3cc2F)COc2cc3c(cc21)OC(F)(F)O3
Hi, I'm comparing two records. Which one has the lower Maximum % activity (%), a or b ? Response format: the label of the selected entry.
b

====

Molecular target: F508delCFTR cell surface expression in CFBE41o-F508delCFTR-HRP cells (Homo sapiens, UniProt P13569, DEL508-508)
Construct: fused on or other part: Horseradish peroxidase (HRP) reporter inserted in the fourth exofacial (extracellular) loop of CFTR; expression is doxycycline-inducible
Experiment: Cell Surface Expression-Horse Radish Peroxidase (CSE-HRP) Assay
Assay type: cell-based
Conditions: maximum at any tested concentration, normalized to on-plate positive control (3 μM)
MEASURED ENDPOINT: Maximum % activity (%)

These recorded examples may help you get a feel for the data.
{"COMPOUND": "CC(C)(CO)c1nc2cc(NC(=O)[C@@]3(C)COc4cc5c(cc43)OC(F)(F)O5)c(F)cc2n1C[C@@H](O)CO", "ASSAY RESULT": 72}
{"COMPOUND": "COc1ccc2c(c1)O[C@@H](c1ccc(Cl)nn1)C[C@H]2NC(=O)[C@@]1(C)COc2cc3c(cc21)OC(F)(F)O3", "ASSAY RESULT": 101}
{"COMPOUND": "Cc1ccc(NC(=O)C2(C)COc3cc4c(cc32)OC(F)(F)O4)nc1-c1cccc(C(=O)O)c1 (stereo not drawn)", "ASSAY RESULT": 159}
{"COMPOUND": "C[C@]1(C(=O)N[C@@H]2C[C@H](C3(C(=O)N4C[C@H](O)[C@@H](O)C4)CC3)Oc3cc(OC(F)(F)F)ccc32)COc2cc3c(cc21)OC(F)(F)O3", "ASSAY RESULT": 135}

[I] Cc1cc(NC(=O)[C@@]2(C)COc3cc4c(cc32)OC(F)(F)O4)nc(-c2cccc(C(=O)O)c2)c1
[II] COc1ccc2c(c1)O[C@@H](c1ccc(C(=O)N3CCC(O)(CCO)C3)cn1)C[C@H]2NC(=O)[C@@]1(C)COc2cc3c(cc21)OC(F)(F)O3 (stereo partly drawn)
Hi, I'm comparing two records. Which one has the lower Maximum % activity (%), I or II ? Response format: the label of the selected entry.
II

====

Target: F508delCFTR cell surface expression in CFBE41o-F508delCFTR-HRP cells (Homo sapiens, UniProt P13569, DEL508-508)
Construct: fused on or other part: Horseradish peroxidase (HRP) reporter inserted in the fourth exofacial (extracellular) loop of CFTR; expression is doxycycline-inducible
Test: Cell Surface Expression-Horse Radish Peroxidase (CSE-HRP) Assay
Type: cell-based
Details: CFBE41o-F508delCFTR-HRP cells, 18-24 hours at 33° C., 8-point curve, highest concentration 20 μM
MEASURED ENDPOINT: EC50 (nM)

{"COMPOUND": "COc1ccc2c(c1)O[C@@H](c1ccc(C(=O)N3CCOC(CO)C3)cn1)C[C@H]2NC(=O)[C@@]1(C)COc2cc3c(cc21)OC(F)(F)O3 (stereo partly drawn)", "EC50, nM": 50}
{"COMPOUND": "COC(=O)c1ccc(-c2csc(NC(=O)C3(C)COc4cc5c(cc43)OC(F)(F)O5)n2)cc1 (stereo not drawn)", "EC50, nM": 7290}
{"COMPOUND": "Cc1ccc(NC(=O)C2(C)COc3cc4c(cc32)OC(F)(F)O4)nc1-c1cccc(C(=O)N(C)C)c1 (stereo not drawn)", "EC50, nM": 1730}
{"COMPOUND": "C[C@]1(C(=O)N[C@@H]2C[C@H](C3CCC(CN)(C(=O)O)CC3)Oc3cc(OC(F)(F)F)ccc32)COc2cc3c(cc21)OC(F)(F)O3 (stereo partly drawn)", "EC50, nM": 640}
{"COMPOUND": "CCOC(=O)[C@H]1CC[C@H]([C@H]2C[C@@H](NC(=O)[C@@]3(C)COc4cc5c(cc43)OC(F)(F)O5)c3ccc(OC)cc3O2)CC1", "EC50, nM": 304}

[a] C[C@]1(C(=O)N[C@@H]2C[C@H](C3CCN(C(=O)OCc4ccccc4)CC3)Oc3cc(OC(F)(F)F)ccc32)COc2cc3c(cc21)OC(F)(F)O3
[b] CCOC(=O)[C@H]1CC[C@H]([C@H]2C[C@@H](NC(=O)[C@@]3(C)COc4cc5c(cc43)OC(F)(F)O5)c3ccc(OC(F)(F)F)cc3O2)CC1
Between the entries labelled a and b , which has a larger EC50 value on record? Response format: the label of the selected entry.
a
(a: 310 nM, b: 41 nM)

[I] C[C@]1(C(=O)N[C@@H]2C[C@H]([C@H]3CC[C@H](C(=O)NCCO)CC3)Oc3cc(OC(F)(F)F)ccc32)COc2cc3c(cc21)OC(F)(F)O3
[II] CC(C)(C)OC(=O)CN1CCC([C@H]2C[C@@H](NC(=O)[C@@]3(C)COc4cc5c(cc43)OC(F)(F)O5)c3ccc(OC(F)(F)F)cc3O2)CC1
Hi, I'm comparing two records. Which one has the lower EC50, I or II ? Response format: the label of the selected entry.
I
(I: 60 nM, II: 670 nM)

[I] CN1CC2CN(c3cccc(NC(=O)C4(C)COc5cc6c(cc54)OC(F)(F)O6)n3)CC2C1 (stereo not drawn)
[II] COc1ccc2c(c1)O[C@@H](c1ccc(C(=O)N3CCC(O)(CCO)C3)cn1)C[C@H]2NC(=O)[C@@]1(C)COc2cc3c(cc21)OC(F)(F)O3 (stereo partly drawn)
Hi, I'm comparing two records. Which one has the lower EC50, I or II ? Response format: the label of the selected entry.
II

====

Biological target: F508delCFTR cell surface expression in CFBE41o-F508delCFTR-HRP cells (Homo sapiens, UniProt P13569, DEL508-508)
Construct: fused on or other part: Horseradish peroxidase (HRP) reporter inserted in the fourth exofacial (extracellular) loop of CFTR; expression is doxycycline-inducible
Assay: Cell Surface Expression-Horse Radish Peroxidase (CSE-HRP) Assay
Settings: CFBE41o-F508delCFTR-HRP cells, 18-24 hours at 33° C., 8-point curve, highest concentration 20 μM
pEC50: −log10 of the molar value.
MEASURED ENDPOINT: pEC50

These recorded examples may help you get a feel for the data.
{"COMPOUND": "COC(=O)c1cccc([C@H]2C[C@@H](NC(=O)C3(C)CCc4cc5c(cc43)OC(F)(F)O5)c3ccc(OC)cc3O2)c1 (stereo partly shown)", "ASSAY RESULT": 6.02}
{"COMPOUND": "CCOC(=O)[C@H]1CC[C@@H]([C@@H]2C[C@H](NC(=O)[C@@]3(C)COc4cc5c(cc43)OC(F)(F)O5)c3ccc(OC(F)(F)F)cc3O2)CC1", "ASSAY RESULT": 5.44}
{"COMPOUND": "C[C@@]1(C(=O)N[C@@H]2C[C@H]([C@H]3CC[C@H](C(=O)O)CC3)Oc3cc(OC(F)(F)F)ccc32)CCc2cc3c(cc21)OC(F)(F)O3", "ASSAY RESULT": 5.90}
{"COMPOUND": "CC1(C)COC(C)(C)c2c1n(C[C@@H](O)CO)c1cc(F)c(NC(=O)[C@@]3(C)COc4cc5c(cc43)OC(F)(F)O5)cc21", "ASSAY RESULT": 5.71}
{"COMPOUND": "CC1(C(=O)Nc2nc(-c3ccc(C(=O)O)cc3)cs2)COc2cc3c(cc21)OC(F)(F)O3 (stereo not shown)", "ASSAY RESULT": 5.35}

[1] Cc1ccc(NC(=O)C2(C)CCc3cc4c(cc32)OC(F)(F)O4)nc1-c1cccc(C(=O)O)c1 (stereo not shown)
[2] COc1ccc2c(c1)O[C@@H](c1cnc([C@@H](O)CO)cn1)C[C@H]2NC(=O)[C@@]1(C)COc2cc3c(cc21)OC(F)(F)O3 (single isomer, unassigned)
Between the entries labelled 1 and 2 , which has a larger pEC50 value on record? Response format: the label of the selected entry.
2

[I] C[C@]1(C(=O)Nc2cc(-c3ccccc3)nn(C[C@@H](O)CO)c2=O)COc2cc3c(cc21)OC(F)(F)O3
[II] CC(C)(CO)c1nc2cc(NC(=O)[C@@]3(C)COc4cc5c(cc43)OC(F)(F)O5)c(F)cc2n1C[C@@H](O)CO
Hi, I'm comparing two records. Which one has the lower pEC50, I or II ? Response format: the label of the selected entry.
II
(II: 5.69, I: 6.09)

[P] CC(C)(COCc1ccccc1)c1cc2cc(NC(=O)[C@@]3(C)COc4cc5c(cc43)OC(F)(F)O5)c(F)cc2[nH]1
[Q] COc1ccc2c(c1)O[C@@H](c1ccc(C(=O)NCCS(C)(=O)=O)cn1)C[C@H]2NC(=O)[C@@]1(C)COc2cc3c(cc21)OC(F)(F)O3
Hi, I'm comparing two records. Which one has the lower pEC50, P or Q ? Response format: the label of the selected entry.
P
(P: 6.51, Q: 7.22)
